All values here come from patent US20240390418A1.

Target: T1, C-10 peptide
T1 construct: also called PSMGFR C-10; PSMGFR minus 10 amino acids from the C-terminus
T1 peptide: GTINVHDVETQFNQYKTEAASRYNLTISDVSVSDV
Experiment: ELISA, peptide on plate (FIG. 201C)
Endpoint Label: binding result

monoclonal antibody 8C7F3 (antibody, V domains shown, Raised against PSMGFR) VH: EVMLVESGGGLVKPGGSLKLSCAASGFTFSTYAMSWVRQTPEKRLEWVAAISNGGGYTYYPDSLKGRFTISRDNAKNTLYLQMSSLRSEDTATYYCARRYYDHYFDYWGQGTALTVSS VL: IIVLTQSPASLAVSLGQRATISCRASESVATYGNNFMQWYQQKPGQPPKLLIYLASTLDSGVPARFSGSGSRTDFTLTIDPVEADDAATYYCQQNNEDPPTFGGGTKLEIK; no binding
monoclonal antibody B9 (antibody, V domains shown, Raised against PSMGFR) VH: EVQVVESGGDLVKPGGSLKLSCAASGFTFSRYGMSWVRQTPDKRLEWVATISSGGTYIYYPDSVKGRFTISRDNAKNTLYLQMSSLKSEDTAMYYCARDNYGSSYDYAMDYWGQGTSVTVSS VL: QIVLTQSPAIMSASPGEEVTLTCSASSSVSYMHWFQQRPGTSPKLWIYTTSNLASGVPARFSGSGSGTSYSLTISRMEAEDAATYYCQQRSSYPFTFGSGTKLEIK; no binding
monoclonal antibody B12 (antibody, V domains shown, Raised against PSMGFR) VH: QAQLKESGPGLVAPSQSLSITCTVSGFSLTSYGVHWVRQPPGKGLEWLGVIWPGGSTNYNSTLMSRMRIIKDNSKSQVFLKMNSLQIDDTAMYYCARDRTPRVGAWFAYWGQGTLVTVSA VL: IIVLTQSPASLAVSLGQRATISCRASESVATYGNNFMQWYQQKPGQPPKLLIYLASTLDSGVPARFSGSGSRTDFTLTIDPVEADDAATYYCQQNNEDPPTFGGGTKLEIK; no binding
